The measurements presented in this section are drawn from PubChem BioAssay AID1259309.

- assay.overview: growth inhibition of ugtP-null S. aureus, primary screen, RN4220 ugtP deletion, OD600 (AID 1259309)
- assay.context: 16 h, hits give high values
The whole screen tested about 330,000 compounds, of which about 1,800 (0.55%) were called active. The list comes from a sample in which actives are over-represented; it also holds close analogues and randomly drawn compounds.
Is growth inhibition at least 10%? Then TRUE. If not, FALSE.

Data request: Reported growth inhibition at or above 10%? `Cc1cccc(NC(=S)NN=C(c2ccccc2)C(C)C)c1`
Data returned: TRUE

Data request: Assess whether reported growth inhibition for `NC(=O)C1CCN(C(=O)COc2cccc3cccnc23)CC1` sits at 10% or higher.
Data returned: FALSE

Data request: Confirm if growth inhibition reported for the compound CC=C(C)C(=O)Nc1cccc(C2=NOC3(C2)CC(C(N)=O)N(C(=O)c2ccc(OC)cc2)C3)c1 (configuration not stated) is 10% or above.
Data returned: FALSE

Data request: Please indicate if the recorded growth inhibition for `CN1CCN(C(=O)COc2ccc(C(C)(C)C)cc2Br)CC1` meets or exceeds 10%.
Data returned: FALSE

Data request: Threshold query (growth inhibition >= 10%) on C=C(C)C(=O)Nc1cccc(C2=NOC3(C2)CC(C(N)=O)N(C(=O)c2ccccc2)C3)c1 (configuration not stated)
Data returned: FALSE

Data request: Identify whether the reported growth inhibition of the following compound is 10% or greater: `Cc1ccccc1NC(=O)CSC(=O)c1ccccc1`
Data returned: FALSE

Data request: Hi, just wondering whether `CCOc1ccc2c(c1)C(c1ccc(C)cc1)=NNC(c1ccc(C)cc1)=N2` shows growth inhibition of 10% or higher.
Data returned: TRUE

Data request: Entry `Cc1ccccc1N/C(SCc1ccc(Cl)cc1)=C(/C#N)C(N)=O` : is its growth inhibition no less than 10%?
Data returned: TRUE

Data request: Please tell me: is the compound `CCOc1ccccc1C=NNC(=O)c1nnn(-c2nonc2N)c1CN1CCCCCC1` at or over 10% in terms of growth inhibition?
Data returned: FALSE

Data request: Given `O=C(CN1CCCCC1)Nc1ccc(Br)cc1C(=O)c1ccccc1Cl` , state whether its growth inhibition is at least 10%.
Data returned: TRUE

Data request: For this compound, is measured growth inhibition 10% or higher? `CCc1nc(C)ccc1OCC(=O)N(CC)CC`
Data returned: FALSE

Data request: Dear colleague, could you confirm whether `COc1cccc(-c2cnc(OC(C)(C)C)nc2OC(C)(C)C)c1` has growth inhibition at or above 10%?
Data returned: TRUE

Data request: I'd appreciate it if you could say whether `O=C(NC(Nc1nc2ccc([N+](=O)[O-])cc2s1)(C(F)(F)F)C(F)(F)F)c1ccccc1` has growth inhibition at least equal to 10%.
Data returned: TRUE

Data request: # bool: growth inhibition of `Oc1ccccc1C=NNc1cccc2cccnc12` >= 10%
Data returned: TRUE

Data request: hey, is growth inhibition for this one >= 10%? Cc1ccc(-c2csc(N3CCCC3C(=O)NCCn3c(-c4ccncc4)nc4ccccc43)n2)cc1 (configuration not stated)
Data returned: TRUE

Data request: In plain terms: is recorded growth inhibition at least 10% for O=C1C=C(c2cccc(CO)c2)CC(c2ccc(Cl)cc2)C1 (configuration not stated) ?
Data returned: FALSE

Data request: Check if growth inhibition >= 10% (inclusive). Item: `Fc1ccc(-c2ccc(C=Nn3cnnc3)o2)cc1`
Data returned: FALSE

Data request: Record `COc1ccc(-c2nc(N)ncc2-c2ccc(Cl)cc2)c(O)c1` ; criterion: growth inhibition no lower than 10%. Met?
Data returned: FALSE

Data request: Check the entry `Cc1cccc(NC(=S)Nc2ccc(Cl)c(Cl)c2)c1` : does growth inhibition equal or exceed 10%?
Data returned: TRUE

Data request: Decide: is the reported value of growth inhibition for CC1CN(C(=S)Nc2ccccc2F)CC(C)O1 (configuration not stated) equal to or greater than 10%?
Data returned: FALSE

Data request: API: above_or_equal(metric=growth inhibition, cutoff=10%) for item COc1c(N2CCN(C(=S)Nc3ccccc3F)C(C)C2)c(F)cc2c(=O)c(C(=O)O)cn(C3CC3)c12 (configuration not stated)
Data returned: TRUE
